All values here come from patent US7074822B2.

Biological target: porcine pancreatic lipase (Sus scrofa, UniProt P00591)
Construct: lipase standard LS7 in accordance with the rules of the “Fédération Internationale Pharmaceutique” (=FIP) (porcine pancreatic lipase, 36,700 FIP units/g); host or cells: porcine pancreas
Sequence (P00591 whole entry): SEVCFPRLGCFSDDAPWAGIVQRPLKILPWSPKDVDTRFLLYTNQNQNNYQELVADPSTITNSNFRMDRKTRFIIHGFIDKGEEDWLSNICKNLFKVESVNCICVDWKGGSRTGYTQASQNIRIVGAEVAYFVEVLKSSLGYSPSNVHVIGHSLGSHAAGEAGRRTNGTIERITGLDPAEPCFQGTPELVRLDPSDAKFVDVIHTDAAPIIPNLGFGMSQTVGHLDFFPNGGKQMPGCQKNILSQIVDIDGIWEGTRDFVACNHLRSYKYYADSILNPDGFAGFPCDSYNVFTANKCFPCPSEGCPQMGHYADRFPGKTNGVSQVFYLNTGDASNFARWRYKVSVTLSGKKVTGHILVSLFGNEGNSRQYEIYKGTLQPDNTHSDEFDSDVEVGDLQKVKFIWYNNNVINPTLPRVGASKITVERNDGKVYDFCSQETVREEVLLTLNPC
Assay: p-nitrophenyl palmitate (pNpp) test: inhibition of lipolytic action of porcine pancreatic lipase in vitro
Format: biochemical
Details: substrate p-nitrophenyl palmitate, 37° C., absorbance at 405 nm; read-out: IC50, porcine pancreatic lipase-inhibiting action in vitro with respect to pNpp
Method: 1. p-nitrophenyl Palmitate Test In this test the inhibition of the lipolytic action of porcine pancreatic lipase with respect to the test substrate p-nitrophenyl palmitate(=pNpp) under the influence of the test substances of Formula I was determined. Therein, the change in the relative absorbance of the investigated solutions caused by the lipolytic release of p-nitrophenol from pNpp was measured. […] Measurement was effected at 37° C., and the absorbances were measured at a wavelength of 405 nm. […]
Outcome Measure: IC50 (nM)

Examples from the recorded data:
Compound	Observed
CCCCCCC1C(=O)OC1CCCCCOC(=O)Nc1ccc(Cl)c(Cl)c1 (stereo not shown)	319
CCCCCC[C@@H]1C(=O)O[C@H]1CCCCCOC(=O)Nc1ccc(Oc2ccccc2)cc1 (relative stereo) [Example 1]	106
CCCCCCC1C(=O)OC1CCCCCOC(=O)NCc1ccccc1 (stereo not shown)	187
CCCCCCC1C(=O)OC1CCCOC(=O)Nc1ccccc1 (racemic)	107
CCCCCCC1C(=O)OC1CCCCCOC(=O)Nc1ccccc1 (mixture of isomers)	47
CCCCCCC1C(=O)OC1CCCCCOC(=O)NC(C)C (mixture of isomers)	88

I. CCCCCC[C@@H]1C(=O)O[C@H]1CCCCCOC(=O)Nc1ccc(Oc2ccccc2)cc1 [Example 6]
II. CCCCCCC1C(=O)OC1CCCCCOC(=O)NC(=O)c1ccccc1 (stereo not shown)
III. CCCCCCC1C(=O)OC1CCCCCOC(=O)Nc1ccc(OCC)cc1 (stereo not shown)
IV. CCCCCCC1C(=O)OC1CCCCCOC(=O)NCCc1ccccc1 (stereo not shown)
Request: Ascending by IC50, please. Lab note: record answer as labels in requested order.
Result: IV, III, I, II
